- Assayed System: T1, Mcl-1, Q07820
- T1 chain: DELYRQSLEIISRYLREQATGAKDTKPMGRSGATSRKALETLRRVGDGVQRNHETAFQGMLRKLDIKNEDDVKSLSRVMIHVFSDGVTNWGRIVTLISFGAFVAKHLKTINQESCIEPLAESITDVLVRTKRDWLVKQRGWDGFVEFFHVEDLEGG
- Procedure Text: peptide SPOT array, c-Myc-tagged receptor at 1 uM or 100 nM, anti-c-Myc-Cy3
Measurement Type: SPOT signal as a fraction of Bim BH3's signal on the same receptor and array

[
  {
    "Binder": "CHGLRELALNDHLLSDELLLALSSEK [FBXL3]",
    "Number": 0.04
  },
  {
    "Binder": "AFVGRLVSTLISKAGRELGENLDQIL [IPO9]",
    "Number": 0.03
  },
  {
    "Binder": "TAAAAYRGAHLRGRGRTVYNTFRAAA [XXXX]",
    "Number": 1.37
  },
  {
    "Binder": "DIDEGLYSRQLYVLGHEAMKRLQTSS [UBA1]",
    "Number": 0.04
  }
]

(a) LMARPAVALHFQSIADGFKEAVRYVL [SOS2]
(b) APEEDFFSIHDRIVGDWTEGLFNACG [CYBB]
(c) ADLYEEAAENLHQLSDKLPAPGRAMV [MTBP]
Q) Could you please sort these 3 entries by SPOT signal as a fraction of Bim BH3's signal on the same receptor and array from high to low? A ranking is expressed here by listing the labels in the requested order.
A) a, b, c
(a: 1.08, b: 0.03, c: 0.02)
